Answer each item with its documented DC50.
- system: CK1α (Homo sapiens, UniProt P48729+Q96SW2)
- Construct: CSNK1A1-HiBit KI HEK293(LgBit) Cells; host or cells: HEK293(LgBit) knock-in cells
- Sequence (P48729 whole entry): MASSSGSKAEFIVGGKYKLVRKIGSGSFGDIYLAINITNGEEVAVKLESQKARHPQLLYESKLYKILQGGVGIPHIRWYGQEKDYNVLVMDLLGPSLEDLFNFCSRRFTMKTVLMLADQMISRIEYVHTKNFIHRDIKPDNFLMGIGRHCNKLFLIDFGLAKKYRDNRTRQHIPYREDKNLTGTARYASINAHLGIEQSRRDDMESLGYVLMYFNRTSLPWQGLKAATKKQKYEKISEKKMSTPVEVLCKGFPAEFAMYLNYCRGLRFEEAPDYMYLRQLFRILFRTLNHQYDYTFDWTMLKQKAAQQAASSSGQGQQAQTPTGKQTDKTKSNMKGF
- Sequence (Q96SW2 whole entry): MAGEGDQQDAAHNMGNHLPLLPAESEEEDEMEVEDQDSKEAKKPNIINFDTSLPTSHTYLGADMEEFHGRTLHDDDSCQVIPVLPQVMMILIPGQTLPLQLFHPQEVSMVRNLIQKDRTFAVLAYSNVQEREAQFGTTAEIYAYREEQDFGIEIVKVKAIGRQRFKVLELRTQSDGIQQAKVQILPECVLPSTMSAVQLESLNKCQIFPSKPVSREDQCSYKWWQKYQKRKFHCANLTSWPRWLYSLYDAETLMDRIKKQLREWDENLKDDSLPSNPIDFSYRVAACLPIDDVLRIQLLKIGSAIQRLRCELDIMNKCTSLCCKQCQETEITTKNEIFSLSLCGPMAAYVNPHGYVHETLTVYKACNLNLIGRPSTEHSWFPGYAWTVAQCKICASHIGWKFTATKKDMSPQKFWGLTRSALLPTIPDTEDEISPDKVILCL
- Sequence (Q16531 whole entry partner): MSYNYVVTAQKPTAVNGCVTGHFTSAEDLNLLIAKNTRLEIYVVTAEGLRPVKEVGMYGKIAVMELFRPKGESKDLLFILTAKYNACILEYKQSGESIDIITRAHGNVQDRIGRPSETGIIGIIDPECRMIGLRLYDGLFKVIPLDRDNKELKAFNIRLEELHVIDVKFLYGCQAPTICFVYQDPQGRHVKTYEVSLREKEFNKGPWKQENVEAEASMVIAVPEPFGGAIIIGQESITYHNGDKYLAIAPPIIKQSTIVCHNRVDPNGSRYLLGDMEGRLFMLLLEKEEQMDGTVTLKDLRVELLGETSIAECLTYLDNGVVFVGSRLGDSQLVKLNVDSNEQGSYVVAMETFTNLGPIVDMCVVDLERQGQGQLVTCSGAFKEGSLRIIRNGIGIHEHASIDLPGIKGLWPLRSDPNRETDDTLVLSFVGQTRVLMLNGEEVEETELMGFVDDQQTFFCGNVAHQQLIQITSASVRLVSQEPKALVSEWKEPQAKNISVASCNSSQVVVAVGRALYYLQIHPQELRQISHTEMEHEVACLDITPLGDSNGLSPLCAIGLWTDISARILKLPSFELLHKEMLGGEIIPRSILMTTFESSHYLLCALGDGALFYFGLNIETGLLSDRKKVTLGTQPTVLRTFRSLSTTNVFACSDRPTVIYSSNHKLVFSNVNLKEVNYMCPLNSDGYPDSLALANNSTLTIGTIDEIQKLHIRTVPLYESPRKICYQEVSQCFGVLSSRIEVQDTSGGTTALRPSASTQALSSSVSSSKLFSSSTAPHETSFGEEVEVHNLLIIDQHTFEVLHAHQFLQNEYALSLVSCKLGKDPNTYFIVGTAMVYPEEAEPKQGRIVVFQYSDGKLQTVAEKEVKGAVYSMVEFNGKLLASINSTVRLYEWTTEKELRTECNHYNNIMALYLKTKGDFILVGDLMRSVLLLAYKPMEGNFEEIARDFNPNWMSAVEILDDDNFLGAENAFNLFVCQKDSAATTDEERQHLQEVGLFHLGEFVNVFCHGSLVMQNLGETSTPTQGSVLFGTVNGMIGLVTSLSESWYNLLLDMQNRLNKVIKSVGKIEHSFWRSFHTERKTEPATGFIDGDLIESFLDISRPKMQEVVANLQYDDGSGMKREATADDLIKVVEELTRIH
- assay.comment: HiBiT degradation assay, CK1α, Procedure A
- Type: cell-based
- measurement.setup: six hours incubation

The cases that follow already have their DC50 on record.
1. CNC(=O)c1ccc(-c2c(-c3ccc4c(c3)CN(C3CCC(=O)NC3=O)C4=O)ncn2C)cc1 (centres unmarked)
≥ 25 nM
2. Cc1cc(-c2c(-c3ccc4c(c3)CN(C3CCC(=O)NC3=O)C4=O)cnn2C)ccc1F (centres unmarked)
< 25 nM

# return DC50 for each item in the list
1. Cc1nn(C)c(-c2ccc3c(c2)CN(C2CCC(=O)NC2=O)C3=O)c1-c1ccccc1 (centres unmarked)
2. COc1ccc(-c2c(-c3ccc4c(c3)CN(C3CCC(=O)NC3=O)C4=O)cnn2C)cc1 (centres unmarked)
3. COc1ccc(-c2c(-c3ccc4c(c3)CN(C3CCC(=O)NC3=O)C4=O)cnn2C)c(C)c1 (centres unmarked)
4. Cc1c(F)cccc1-c1c(-c2ccc3c(c2)CN(C2CCC(=O)NC2=O)C3=O)ncn1C (centres unmarked)

Reply:
≥ 25 nM
< 25 nM
< 25 nM
< 25 nM

Please state, for each entry, its recorded DC50.
1. Cn1c(C2CC2)nc(-c2ccc3c(c2)CN(C2CCC(=O)NC2=O)C3=O)c1-c1ccncc1 (centres unmarked)
2. CN1N=CC(c2ccc3c(c2)CN(C2CCC(=O)NC2=O)C3=O)C1c1cnc(C#N)nc1 (centres unmarked)

Reply:
1. < 25 nM
2. ≥ 25 nM
